protocol_summary: Octanol-air partition coefficient, log KOA of the compound
Format: physicochemical
Record 1 (yes) whenever log KOA is at 7 or higher; record 0 (no) when lower.

Previously resolved entries follow.
| structure_notation | answer_label |
| --- | --- |
| Cc1c([N+](=O)[O-])c(C)c([N+](=O)[O-])c(C(C)(C)C)c1[N+](=O)[O-] | 1 (yes) |
| ClC(Cl)=C(Cl)C(Cl)=C(Cl)Cl | 0 (no) |
| O=S(=O)(c1ccc(Cl)cc1)c1cc(Cl)c(Cl)cc1Cl | 1 (yes) |
| OC(c1ccc(Cl)cc1)(c1ccc(Cl)cc1)C(Cl)(Cl)Cl | 1 (yes) |
| ClC1=C(Cl)[C@]2(Cl)[C@@H]3[C@@H]4C[C@@H]([C@H]5O[C@@H]45)[C@@H]3[C@@]1(Cl)C2(Cl)Cl | 1 (yes) |

*Q* Determine whether measured log KOA meets or exceeds 7 for C=Cc1ccccc1
*A* 0 (no)

*Q* Next compound: Clc1c(Cl)c(Cl)c(Cl)c(Cl)c1Cl
*A* 1 (yes)

*Q* Next compound: Clc1cc(Cl)c(Cl)cc1Cl
*A* 0 (no)

###

protocol_summary: Octanol-air partition coefficient, log KOA of the compound
Type: physicochemical
outcome_measure: log KOA
Reply briefly: the number, and no unit.

| molecule | outcome_measure | assay_value |
| --- | --- | --- |
| Brc1c(Br)c(Br)c(Oc2c(Br)c(Br)c(Br)c(Br)c2Br)c(Br)c1Br | log KOA | 13.1 |

*Q* Form field: reported log KOA of Clc1cc(Cl)c(-c2cc(Cl)c(Cl)cc2Cl)cc1Cl
*A* 9.6

*Q* Next molecule: Brc1ccc(Oc2cc(Br)c(Br)cc2Br)c(Br)c1
*A* 11.2

*Q* Next molecule: Clc1cc(Cl)c(Cl)c(Cl)c1Cl
*A* 6.9

*Q* Next molecule: ClC1(Cl)C2(Cl)C3(Cl)C4(Cl)C(Cl)(Cl)C5(Cl)C3(Cl)C1(Cl)C5(Cl)C24Cl (centres undefined)
*A* 9.6

*Q* Next molecule: Clc1cc(Cl)c(-c2cc(Cl)c(Cl)c(Cl)c2Cl)cc1Cl
*A* 10.9

*Q* Next molecule: Clc1cc(Cl)cc(Cl)c1
*A* 4.7

*Q* Next molecule: Brc1ccc(Oc2ccc(Br)cc2Br)c(Br)c1
*A* 9.8

*Q* Next molecule: Cl[C@H]1[C@H](Cl)[C@@H](Cl)[C@H](Cl)[C@@H](Cl)[C@@H]1Cl
*A* 8.9

###

Each entry below carries its recorded BMF.
protocol_summary: Biomagnification factors in Diporeia
Format: ADME

Sample answers from the record:
| structure_notation | BMF |
| --- | --- |
| OC(c1ccc(Cl)cc1)(c1ccc(Cl)cc1)C(Cl)(Cl)Cl | < 1 |
| ClC(Cl)=C(Cl)C(Cl)=C(Cl)Cl | < 1 |
| ClC1=C(Cl)[C@]2(Cl)[C@@H]3[C@@H]4C[C@@H]([C@H]5O[C@@H]45)[C@@H]3[C@@]1(Cl)C2(Cl)Cl | 1.7 |
| Cc1c([N+](=O)[O-])c(C)c([N+](=O)[O-])c(C(C)(C)C)c1[N+](=O)[O-] | < 1 |
| Clc1cc(Cl)cc(Cl)c1 | < 1 |
| Brc1ccc(Oc2ccc(Br)cc2Br)c(Br)c1 | 2.2 |
| O=S(=O)(c1ccc(Cl)cc1)c1cc(Cl)c(Cl)cc1Cl | < 1 |
| Brc1c(Br)c(Br)c(Oc2c(Br)c(Br)c(Br)c(Br)c2Br)c(Br)c1Br | 1 |

Next up:
*Q* Form field: reported BMF of Cl[C@H]1[C@H](Cl)[C@@H](Cl)[C@H](Cl)[C@@H](Cl)[C@@H]1Cl
*A* < 1
